Assay: Cytotoxicity assay (MTS) on non-infected RAW 264.7 cells
Format: cell-based
Details: mouse, non-infected RAW 264.7 cells, cytotoxic concentration to induce 50% death of non-infected RAW 264.7 cells; read-out: MNV CC50 ± SD
RECORDED_METRIC: CC50 (µM)
Numeric answer only, unit µM assumed.

Record request: CC50 value, item Cc1cc(C)cc(Sc2c(C(=O)NCc3ccc(CO)cc3)[nH]c3ccc(Cl)cc23)c1 [compound 9]
31.7

***
Record request: CC50 value, item Cc1cc(C)cc(S(=O)(=O)c2c(C(=O)NCc3ccc(O)cc3)[nH]c3ccc(Cl)cc23)c1 [compound 4]
3.48

* * *

Listing of entries alongside the reported melting point.

Record request: melting point value, item Cc1cc(C)cc(S(=O)(=O)c2c(C(=O)NCCc3ccc(O)cc3)[nH]c3ccc(Cl)cc23)c1
231 to 234 °C

***
Record request: melting point value, item Cc1cc(C)cc(S(=O)(=O)c2c(C(=O)Nc3ccc(CO)cc3)[nH]c3ccc(Cl)cc23)c1
220 to 221 °C

Query O=C(NCc1ccc(CO)cc1)c1[nH]c2ccc(Cl)cc2c1S(=O)(=O)c1ccccc1 next
182 to 185 °C

Query Cc1cc(C)cc(Cc2c(C(=O)NCc3ccc(CO)cc3)[nH]c3ccc(Cl)cc23)c1 next
171 to 174 °C

Query Cc1cc(C)cc(S(=O)(=O)c2c(C(=O)NCc3ccc(CO)cc3)[nH]c3ccc(Cl)cc23)c1 next
124 to 126 °C

Query Cc1cc(C)cc(Sc2c(C(=O)NCc3ccc(CO)cc3)[nH]c3ccc(Cl)cc23)c1 next
212 to 215 °C

Query O=C(Nc1ccc(CO)cc1)c1[nH]c2ccc(Cl)cc2c1S(=O)(=O)c1ccccc1 next
152 to 155 °C

Query Cc1cc(C)cc(S(=O)(=O)c2c(C(=O)NCc3ccc(O)cc3)[nH]c3ccc(Cl)cc23)c1 next
236 to 237 °C

Query Cc1cc(C)cc(C(=O)c2c(C(=O)NCc3ccc(CO)cc3)[nH]c3ccc(Cl)cc23)c1 next
271 to 274 °C

* * *

Experiment: Cytotoxicity assay (MTS) on non-infected RAW 264.7 cells
Format: cell-based
Details: mouse, non-infected RAW 264.7 cells, cytotoxic concentration to induce 50% death of non-infected RAW 264.7 cells; read-out: MNV CC50 ± SD
RECORDED_METRIC: CC50 (µM)
Numeric answer only, unit µM assumed.

Answered cases to consult:
Record request: CC50 value, item Cc1cc(C)cc(Cc2c(C(=O)NCc3ccc(CO)cc3)[nH]c3ccc(Cl)cc23)c1
9.27

Query O=C(Nc1ccc(CO)cc1)c1[nH]c2ccc(Cl)cc2c1S(=O)(=O)c1ccccc1 next
34.9

# ---- query molecule ----
Record request: CC50 value, item O=C(NCc1ccc(CO)cc1)c1[nH]c2ccc(Cl)cc2c1S(=O)(=O)c1ccccc1
25.7
